- target-or-system: Norepinephrine transporter (Rattus norvegicus)
- Sequence (Q9WTR4 whole entry): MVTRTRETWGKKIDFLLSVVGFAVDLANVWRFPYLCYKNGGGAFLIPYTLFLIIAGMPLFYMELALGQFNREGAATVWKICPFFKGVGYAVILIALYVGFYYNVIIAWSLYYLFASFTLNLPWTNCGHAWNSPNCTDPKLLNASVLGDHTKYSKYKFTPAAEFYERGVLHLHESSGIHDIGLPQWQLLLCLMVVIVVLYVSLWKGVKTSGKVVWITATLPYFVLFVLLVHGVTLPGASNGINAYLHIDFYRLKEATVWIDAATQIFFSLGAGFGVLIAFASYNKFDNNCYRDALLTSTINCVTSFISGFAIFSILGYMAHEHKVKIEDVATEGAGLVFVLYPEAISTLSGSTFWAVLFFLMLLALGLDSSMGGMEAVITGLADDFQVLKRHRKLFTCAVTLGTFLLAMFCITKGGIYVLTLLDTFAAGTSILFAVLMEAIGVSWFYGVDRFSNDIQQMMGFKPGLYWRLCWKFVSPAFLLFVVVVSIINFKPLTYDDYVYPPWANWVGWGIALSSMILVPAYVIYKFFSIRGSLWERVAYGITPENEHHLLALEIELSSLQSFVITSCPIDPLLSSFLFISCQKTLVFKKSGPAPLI
endpoint: Ki (µM)
# output: bare number, implied unit µM

Look over these answered cases.
CN1[C@@H]2CC[C@H]1C[C@@H](OC(c1ccccc1)c1cccc(Cl)c1)C2 (some centres not stated) = 0.451
CCCc1cccc(N2[C@@H]3CC[C@H]2C[C@H](OC(c2ccc(Cl)cc2)c2ccc(Cl)cc2)C3)c1 = 19.8
C=CCN1C2CCC1CC(OC(c1ccccc1)c1ccc(Cl)cc1)C2 (configuration not stated) = 4.72
CCCCc1cccc(N2[C@@H]3CC[C@H]2C[C@H](OC(c2ccc(Cl)cc2)c2ccc(Cl)cc2)C3)c1 = 4.95
Clc1ccc(C(OC2CC3CCC(C2)N3)c2ccccc2)cc1 (configuration not stated) = 1.01
Clc1cccc(C(OC2CC3CCC(C2)N3Cc2ccccc2)c2ccccc2)c1 (configuration not stated) = 6.46

INPUT: Requested read-out Ki, target or system Norepinephrine transporter (Rattus norvegicus), entry Clc1ccc(C(OC2CC3CCC(C2)N3)c2ccc(Cl)cc2)cc1 (configuration not stated)
OUTPUT: 6.04

INPUT: # iterate: Clc1ccc(C(OC2CC3CCC(C2)N3Cc2ccccc2)c2ccc(Cl)cc2)cc1 (configuration not stated)
OUTPUT: 7.66

INPUT: Same again, this time with Clc1ccc(C(OC2CC3CCC(C2)N3Cc2ccccc2)c2ccccc2)cc1 (configuration not stated)
OUTPUT: 13

INPUT: Moving on to CCCCc1cccc(N2C3CCC2CC(OC(c2ccccc2)c2cccc(Cl)c2)C3)c1 (configuration not stated)
OUTPUT: 1.47

INPUT: Also, CCCCc1cccc(N2[C@@H]3CC[C@H]2C[C@H](OC(c2ccccc2)c2ccc(Cl)cc2)C3)c1 (some centres not stated) please.
OUTPUT: 2.32

INPUT: Same for CN1C2CCC1CC(OC(c1ccccc1)c1ccc(Cl)cc1)C2 (configuration not stated)
OUTPUT: 1.47

INPUT: Another: Clc1cccc(C(OC2CC3CCC(C2)N3)c2ccccc2)c1 (configuration not stated)
OUTPUT: 0.508

INPUT: Record: C=CCN1C2CCC1CC(OC(c1ccccc1)c1cccc(Cl)c1)C2 (configuration not stated)
OUTPUT: 1.23

---

Overview of reported pKi across a group of compounds:
- target-or-system: Sodium-dependent dopamine transporter (Rattus norvegicus, UniProt P23977)
- Sequence (P23977 whole entry): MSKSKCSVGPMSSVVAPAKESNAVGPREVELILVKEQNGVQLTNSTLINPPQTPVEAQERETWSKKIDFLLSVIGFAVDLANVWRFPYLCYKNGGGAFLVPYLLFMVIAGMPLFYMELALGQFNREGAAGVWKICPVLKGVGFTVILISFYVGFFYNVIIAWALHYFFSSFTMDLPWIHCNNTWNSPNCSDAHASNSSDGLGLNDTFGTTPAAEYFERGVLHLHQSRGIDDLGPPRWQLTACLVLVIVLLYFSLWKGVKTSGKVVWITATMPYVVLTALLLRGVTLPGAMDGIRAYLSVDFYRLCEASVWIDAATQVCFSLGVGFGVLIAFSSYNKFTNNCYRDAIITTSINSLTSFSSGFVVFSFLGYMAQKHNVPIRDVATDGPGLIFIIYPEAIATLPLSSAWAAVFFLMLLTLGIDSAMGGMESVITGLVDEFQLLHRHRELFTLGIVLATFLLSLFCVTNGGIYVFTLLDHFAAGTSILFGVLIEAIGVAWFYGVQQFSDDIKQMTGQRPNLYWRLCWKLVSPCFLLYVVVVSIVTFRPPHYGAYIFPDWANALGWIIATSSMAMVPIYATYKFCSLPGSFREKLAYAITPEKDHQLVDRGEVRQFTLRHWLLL
Schema: pKi number; meaning minus log10 of the concentration expressed in molar units.

Please review the following examples before continuing.
Clc1ccc(C(OC2CC3CCC(C2)N3Cc2ccccc2)c2ccc(Cl)cc2)cc1 (centres undefined) = 6.40
CCCCc1cccc(N2C3CCC2CC(OC(c2ccccc2)c2cccc(Cl)c2)C3)c1 (centres undefined) = 6.82
Clc1ccc(C(OC2CC3CCC(C2)N3)c2ccccc2)cc1 (centres undefined) = 7.43

INPUT: Item Clc1cccc(C(OC2CC3CCC(C2)N3Cc2ccccc2)c2ccccc2)c1 (centres undefined) with Sodium-dependent dopamine transporter (Rattus norvegicus, UniProt P23977) - pKi?
OUTPUT: 6.72

INPUT: Okay, and C=CCN1C2CCC1CC(OC(c1ccccc1)c1cccc(Cl)c1)C2 (centres undefined) ?
OUTPUT: 7.47

INPUT: What about CCCc1cccc(N2[C@@H]3CC[C@H]2C[C@H](OC(c2ccccc2)c2cccc(Cl)c2)C3)c1 (some centres undefined) ?
OUTPUT: 7.00

INPUT: What do you have for Clc1ccc(C(OC2CC3CCC(C2)N3Cc2ccccc2)c2ccccc2)cc1 (centres undefined) ?
OUTPUT: 6.44

INPUT: Record: CCCCc1cccc(N2[C@@H]3CC[C@H]2C[C@H](OC(c2ccc(Cl)cc2)c2ccc(Cl)cc2)C3)c1
OUTPUT: 7.07

INPUT: Same thing, different compound: CCCc1cccc(N2[C@H]3CC[C@]2(C)C[C@@H](OC(c2ccccc2)c2ccc(Cl)cc2)C3)c1 (some centres undefined)
OUTPUT: 6.83

INPUT: Also need C=CCN1C2CCC1CC(OC(c1ccccc1)c1ccc(Cl)cc1)C2 (centres undefined) , thanks.
OUTPUT: 7.07

INPUT: Let us now turn to CCCc1cccc(N2[C@@H]3CC[C@H]2C[C@H](OC(c2ccc(Cl)cc2)c2ccc(Cl)cc2)C3)c1
OUTPUT: 6.80

INPUT: // next record C=CCN1C2CCC1CC(OC(c1ccc(Cl)cc1)c1ccc(Cl)cc1)C2 (centres undefined)
OUTPUT: 7.26

INPUT: Now the compound Clc1cccc(C(OC2CC3CCC(C2)N3)c2ccccc2)c1 (centres undefined)
OUTPUT: 7.58

INPUT: What do you get for CCCCc1cccc(N2[C@@H]3CC[C@H]2C[C@H](OC(c2ccccc2)c2ccc(Cl)cc2)C3)c1 (some centres undefined) ?
OUTPUT: 7.27
